Tested on: abdominal stretching after phenylbenzoquinone (PBQ)
assay-overview: analgesic activity: blockade of abdominal stretching after phenylbenzoquinone (PBQ)
Type: in vivo, mice, Carworth CF-1 strain
recorded-conditions: s.c., 320 mg./kg.; 20 min. pre-treatment
readout-name: Percent Blockade of Abdominal Stretching (% MPE) After Phenylbenzoquinone
Give just the numeric value; % MPE need not be written.

Solved entries (count: 3):
- smi: "CSCC[C@@H](CO)NC(=O)[C@H](CS)Cc1ccc(Cl)cc1"
  observed-result: 75
- smi: "CSCC[C@@H](CO)NC(=O)[C@@H](CS)Cc1ccccc1"
  observed-result: 100
- smi: "CSCC[C@@H](CO)NC(=O)[C@@H](CS)Cc1ccc(Cl)cc1"
  observed-result: 86

*Q* Query: Percent Blockade of Abdominal Stretching (% MPE) After Phenylbenzoquinone; subject: "COc1ccc(C[C@@H](CS)C(=O)N[C@H](CO)CCSC)cc1"
*A* 46

*Q* Name the reported Percent Blockade of Abdominal Stretching (% MPE) After Phenylbenzoquinone value associated with the compound "COc1ccc(C[C@H](CS)C(=O)N[C@H](CO)CCSC)cc1"
*A* 62

* * *

target-system: enkephalinase (Rattus norvegicus, UniProt P07861)
Construct: whole brain (minus cerebellum) is removed from Sprague-Dawley CD male rats; washed membranes solubilized with 1% Triton X-100
Sequence (P07861 whole entry): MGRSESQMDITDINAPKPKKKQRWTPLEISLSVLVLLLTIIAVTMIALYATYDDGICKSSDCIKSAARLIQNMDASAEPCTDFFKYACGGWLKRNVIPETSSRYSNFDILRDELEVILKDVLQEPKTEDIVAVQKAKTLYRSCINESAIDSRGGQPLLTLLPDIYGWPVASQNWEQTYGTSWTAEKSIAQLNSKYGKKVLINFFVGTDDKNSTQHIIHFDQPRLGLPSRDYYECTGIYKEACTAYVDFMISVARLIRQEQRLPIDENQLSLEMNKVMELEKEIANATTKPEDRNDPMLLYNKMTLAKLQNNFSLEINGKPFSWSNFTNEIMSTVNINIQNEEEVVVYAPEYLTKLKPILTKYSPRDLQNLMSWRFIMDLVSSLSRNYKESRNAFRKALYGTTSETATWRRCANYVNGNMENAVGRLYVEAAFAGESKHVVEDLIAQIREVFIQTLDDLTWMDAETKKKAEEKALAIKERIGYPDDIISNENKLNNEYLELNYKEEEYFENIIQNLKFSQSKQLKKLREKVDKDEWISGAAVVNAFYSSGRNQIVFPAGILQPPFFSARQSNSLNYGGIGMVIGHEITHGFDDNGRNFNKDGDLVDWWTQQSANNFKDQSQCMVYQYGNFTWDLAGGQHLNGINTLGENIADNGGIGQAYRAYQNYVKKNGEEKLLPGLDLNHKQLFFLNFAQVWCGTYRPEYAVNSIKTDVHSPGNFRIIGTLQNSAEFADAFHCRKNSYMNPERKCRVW
assay-overview: inhibition of enkephalinase enzyme in vitro (Tyr-gly-gly formation from 3H-leucine-enkephalin)
recorded-conditions: pH 7.7, 37° C., 1 hour
readout-name: IC50 (nM)
Give just the numeric value; nM need not be written.

Look over these answered cases.
- compound: "CSCC[C@@H](CO)NC(=O)[C@@H](CS)Cc1ccccc1 [I (X=H, R=H, n=2, m=0, R^1=CH3)]"
  readout-name: "IC50"
  unit-info: "nM"
  observed-result: 480
- compound: "CSCC[C@H](NC(=O)[C@H](CS)Cc1ccccc1)C(=O)O [III]"
  readout-name: "IC50"
  unit-info: "nM"
  observed-result: 9.1

*Q* Find the recorded IC50 belonging to CSCC[C@@H](CO)NC(=O)[C@H](CS)Cc1ccccc1 [II (X=H, R=H, n=2, m=0, R^1=CH3)] and report it.
*A* 9600

*Q* What value of IC50 has been reported for the following compound? CSCC[C@H](NC(=O)[C@@H](CS)Cc1ccccc1)C(=O)O [IV]
*A* 70
